TGT: Cytochrome P450 2C9 (Homo sapiens) (UniProt P11712)
Sequence (P11712 whole entry, looked up): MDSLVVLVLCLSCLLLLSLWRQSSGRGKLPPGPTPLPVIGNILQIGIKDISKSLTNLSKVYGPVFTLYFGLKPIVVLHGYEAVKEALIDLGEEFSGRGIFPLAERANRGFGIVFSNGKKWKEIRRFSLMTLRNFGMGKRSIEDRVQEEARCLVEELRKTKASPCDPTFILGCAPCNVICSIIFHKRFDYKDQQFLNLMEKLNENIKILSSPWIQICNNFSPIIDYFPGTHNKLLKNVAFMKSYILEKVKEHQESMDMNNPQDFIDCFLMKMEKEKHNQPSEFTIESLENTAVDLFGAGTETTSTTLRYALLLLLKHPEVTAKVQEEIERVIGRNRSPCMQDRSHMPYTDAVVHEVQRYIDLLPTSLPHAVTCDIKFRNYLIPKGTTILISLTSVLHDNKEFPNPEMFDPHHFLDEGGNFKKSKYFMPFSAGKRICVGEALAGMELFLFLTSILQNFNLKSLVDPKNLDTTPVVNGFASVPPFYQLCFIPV
RUN_DESCRIPTION: qHTS Assay for Inhibitors and Substrates of Cytochrome P450 2C9 (AID 883); further: nearly all actives have a fitted effect of over 60% in size
CONDITION_SUMMARY: recombinant CYP2C9, luciferin-H luminescence, 60 min; series mostly up to 57.1 µM
Experimental: NIH Molecular Libraries Screening Centers Network [MLSCN] NIH Chemical Genomics Center [NCGC] MLSCN Grant: None NCGC Assay Overview: The P450 gene superfamily is involved in the metabolism and clearance of xenobiotics. […] The luciferin is then measured by luminescence after the addition of a luciferase detection reagent. […] Inhibitors and some substrates limit the production of luciferin, and decrease measured luminescence. […]
Records with an inconclusive call do not appear. Calls of active or inactive are those of the source. The call rests on the fitted dose curve; in most records, active means well fitted inhibition curve with a large enough effect; inconclusive means small, poorly fitted or top-dose-only effect; inactive means no such curve, though single readings can be large or run the other way.
Classes used: Y (active), N (inactive)

>>> cat("C=C1CC[C@@H](O)C/C1=C/C=C1\\CCC[C@]2(C)[C@@H]1CC[C@H]2[C@@H](C)/C=C\\[C@@H](C)C(C)C")
"Y"
>>> cat("Nc1ncnc2c1ncn2[C@@H]1O[C@@H](COP(=O)(O)OP(=O)(O)OP(=O)(O)OP(=O)(O)OC[C@@H]2O[C@@H](n3cnc4c(N)ncnc43)[C@@H](O)[C@H]2O)[C@H](O)[C@@H]1O")
"N"
>>> cat("COc1cc([C@@H]2Oc3cc([C@H]4Oc5cc(O)cc(O)c5C(=O)[C@H]4O)ccc3O[C@H]2CO)ccc1O")
"Y"
>>> cat("CCCC1(C(=O)OC)C=C2C(=C(c3ccccc3)C(=O)C2C)CN1 (centres undefined)")
"Y"
>>> cat("CC(C)C[C@@H](CC(=O)N[C@@H](CCC(=O)O)CC(=O)O)NC(=O)[C@@H]1CNCC[C@H]1NC(=O)C[C@@H](NC(=O)C[C@H](Cc1c[nH]c2ccccc12)NC(=O)[C@@H]1CNCC[C@H]1N)C(C)C")
"N"
>>> cat("CCN1CCC[C@@H]1CNC(=O)c1c(OC)ccc(I)c1O")
"N"
>>> cat("O=c1c(O)c(-c2ccc(O)c(O)c2)oc2c(OC[C@H]3O[C@@H](O)[C@@H](O)[C@H](O)[C@@H]3O)c(O)cc(O)c12")
"N"
>>> cat("COc1cc(/C=C\\C(=O)N2CCCCC2=O)cc(OC)c1OC")
"N"
>>> cat("O=c1c(O)c(-c2ccccc2)oc2cc(O)cc(O)c12")
"Y"
>>> cat("CCCC[C@@H]1C[C@H]1C(NC(=O)c1ccco1)c1ccc(C(=O)OC)cc1 (some centres undefined)")
"Y"
>>> cat("CC(C)[C@@H](CC(=O)N[C@@H]1CCCC[C@H]1C(=O)N[C@H](CC(=O)N[C@@H](CCC(=O)O)CC(=O)O)Cc1ccccc1)NC(=O)C[C@H](Cc1c[nH]c2ccccc12)NC(=O)[C@@H]1CNCC[C@H]1N")
"N"
>>> cat("COC(=O)[C@@]1(Cc2ccccc2)[C@H]2c3cc(C(=O)N4CCCC4)n(Cc4ccsc4Br)c3C[C@H]2CN1C(=O)c1ccccc1")
"Y"
>>> cat("C[C@@H]1O[C@@H](OC[C@@H]2O[C@@H](Oc3c(-c4ccc(O)c(O)c4)oc4cc(O)cc(O)c4c3=O)[C@H](O)[C@H](O)[C@@H]2O)[C@H](O)[C@H](O)[C@@H]1O")
"N"
>>> cat("COC(=O)[C@@]1(Cc2ccc(OC)cc2)[C@H]2c3cc(C(=O)N(C)C)[nH]c3C[C@H]2CN1C(=O)c1ccccc1")
"Y"

====

System: AS120
RUN_DESCRIPTION: qHTS profiling for inhibitors of Plasmodium falciparum proliferation (AID 504749); further: nearly all actives have a fitted effect of over 60% in size
CONDITION_SUMMARY: P. falciparum in erythrocytes, SYBR Green DNA, 72 h; series mostly up to 28.7 µM
Records with an inconclusive call do not appear. Active and inactive are the calls of the source. Calls come from the whole dose curve; as a rule, active = well fitted inhibition curve with a large enough effect; inconclusive = small, poorly fitted or top-dose-only effect; inactive = flat fitted curve, though single readings scatter.
Classes used: true (1) = active, false (0) = inactive

>>> cat("Nc1nc(Cl)nc2c1ncn2[C@@H]1O[C@H](CO)[C@H](O)C1F (some centres undefined)")
"false (0)"
>>> cat("CC[C@]1([C@H]2O[C@@H]([C@@H]3O[C@](O)(CO)[C@@H](C)C[C@H]3C)C[C@H]2C)CC[C@@H]([C@]2(C)CC[C@@]3(C[C@@H](O)[C@@H](C)[C@@H]([C@H](C)[C@H](OC)[C@H](C)C(=O)O)O3)O2)O1")
"true (1)"
>>> cat("CCN1CCN(C(=O)NC(C(=O)NC2C(=O)N3C(C(=O)O)=C(CSc4nnnn4C)CSC23)c2ccc(O)cc2)C(=O)C1=O (centres undefined)")
"false (0)"
>>> cat("C[C@@H]1CC2C3CCC4=CC(=O)C=C[C@]4(C)[C@@]3(F)[C@@H](O)C[C@]2(C)[C@@]1(O)C(=O)COC(=O)c1cccc(S(=O)(=O)O)c1 (some centres undefined)")
"false (0)"
>>> cat("C/C=C1/NN(CCCN2CCN(c3cccc(Cl)c3)CC2)C(=O)N1CCOc1ccccc1")
"false (0)"
>>> cat("CNC1C(O)C(OC2C(NC(=O)C(O)CN)CC(N)C(OC3OC(CN)C(O)C(O)C3O)C2O)OCC1(C)O (centres undefined)")
"false (0)"
>>> cat("CC1=C(c2ccc(NN=C(C#N)C#N)cc2)NNC(=O)C1")
"false (0)"
>>> cat("COC(=O)C1C2CC3c4[nH]c5cc(OC)ccc5c4CCN3CC2CC(OC)C1OC (centres undefined)")
"false (0)"
>>> cat("C=C1NC(=O)c2cc(CN(C)c3ccc(C(=O)N[C@@H](CCC(=O)O)C(=O)O)s3)ccc2N1")
"false (0)"

====

Test system: N140
RUN_DESCRIPTION: qHTS profiling for inhibitors of Plasmodium falciparum proliferation (AID 504749); further: nearly all actives have a fitted effect of over 60% in size
CONDITION_SUMMARY: P. falciparum in erythrocytes, SYBR Green DNA, 72 h; series mostly up to 28.7 µM
Inconclusive results are not listed. The source made the active and inactive calls. Calls come from the whole dose curve; as a rule, active = well fitted inhibition curve with a large enough effect; inconclusive = small, poorly fitted or top-dose-only effect; inactive = flat fitted curve, though single readings scatter.
Classes used: active, inactive

>>> cat("C[N+]12CCCC[C@@H]1CCC(=C(c1cccs1)c1cccs1)C2 (stereo not given in full)")
"active"
>>> cat("C=C1CC[C@H](O)C/C1=C/C=C1\\CCC[C@]2(C)[C@@H]([C@H](C)CC[C@@H](O)C(C)(C)O)CC[C@@H]12")
"active"
>>> cat("C[C@]12CC[C@@H]3c4ccc(O)cc4C[C@@H](CCCCCCCCCS(=O)CCCC(F)(F)C(F)(F)F)C3[C@@H]1CC[C@@H]2O (stereo not given in full)")
"active"
>>> cat("CC1(C)OC[C@@H]2O[C@@]3(C(=O)O)OC(C)(C)O[C@@H]3[C@@H]2O1")
"inactive"
>>> cat("CCCC(=O)Nc1c(I)cc(I)c(C[C@H](CC)C(=O)O)c1I")
"inactive"

====

System: CP266
RUN_DESCRIPTION: qHTS profiling for inhibitors of Plasmodium falciparum proliferation (AID 504749); further: nearly all actives have a fitted effect of over 60% in size
CONDITION_SUMMARY: P. falciparum in erythrocytes, SYBR Green DNA, 72 h; series mostly up to 28.7 µM
Results filed as inconclusive are left out. Activity calls are given as the source filed them. Calls follow the shape of the dose curve; as a rule, active = well fitted inhibition curve with a large enough effect; inconclusive = small, poorly fitted or top-dose-only effect; inactive = flat fitted curve, though single readings scatter.
Classes used: active, inactive

>>> cat("CC(CCC(=O)O)C1CCC2C3C(=O)C[C@@H]4CC(=O)CC[C@@]4(C)C3CC(=O)[C@]12C (some centres not stated)")
"inactive"
>>> cat("NC(=O)NC(CCC(=O)O)C(=O)O (configuration not stated)")
"inactive"
>>> cat("C[C@]12CC[C@@H]3c4ccc(O)cc4C[C@@H](CCCCCCCCCS(=O)CCCC(F)(F)C(F)(F)F)C3[C@@H]1CC[C@@H]2O (some centres not stated)")
"inactive"
>>> cat("C/C=C\\C[C@H](C)[C@H](O)[C@H]1C(=O)N[C@@H](CC)C(=O)N(C)CC(=O)N(C)[C@@H](CC(C)C)C(=O)N[C@@H](C(C)C)C(=O)N(C)[C@@H](CC(C)C)C(=O)N[C@@H](C)C(=O)N[C@@H](C)C(=O)N(C)[C@@H](CC(C)C)C(=O)N(C)[C@@H](CC(C)C)C(=O)N(C)[C@@H](C(C)C)C(=O)N1C")
"active"
>>> cat("CC1OC(OC2CCC3(C)C(CCC4C3CC(O)C3(C)C(C5=CC(=O)OC5)CCC43O)C2)CC(O)C1OC1CC(O)C(OC2CC(O)C(OC3OC(CO)C(O)C(O)C3O)C(C)O2)C(C)O1 (configuration not stated)")
"inactive"
>>> cat("COc1ccc(S(=O)(=O)N2c3ccc(Cl)cc3[C@](O)(c3ccccc3Cl)[C@@H]2C(=O)N2CCC[C@H]2C(N)=O)cc1OC")
"inactive"
>>> cat("C/C(=C(/CCO)SS/C(CCO)=C(\\C)N(C=O)Cc1cnc(C)nc1N)N(C=O)Cc1cnc(C)nc1N")
"inactive"
>>> cat("CO/N=C(/C(=O)N[C@@H]1C(=O)N2C(C(=O)O)=C(C[n+]3ccc(N)n3CCO)CS[C@H]12)c1csc(N)n1")
"inactive"
>>> cat("C[C@]12CCC(=O)C=C1[C@@H]1C[C@H]1[C@H]1[C@@H]3[C@@H]4C[C@H]4[C@@]4(CCC(=O)O4)[C@@]3(C)CC[C@@H]12")
"inactive"
>>> cat("CC(=O)N[C@H]1[C@H](O[C@@H]2c3ccc(c(Cl)c3)Oc3cc4cc(c3O[C@@H]3O[C@H](CO)[C@@H](O)[C@H](O)C3C)Oc3ccc(cc3Cl)C[C@H]3NC(=O)[C@@H](N)c5ccc(O)c(c5)Oc5cc(O)cc(c5)[C@H](NC3=O)C(=O)N[C@H]4C(=O)N[C@H]3C(=O)N[C@@H]2C(=O)N[C@@H](C(=O)O)c2cc(O)cc(O[C@H]4O[C@H](CO)[C@@H](O)C(O)[C@@H]4O)c2-c2cc3ccc2O)O[C@H](CO)[C@@H](O)[C@@H]1O (some centres not stated)")
"inactive"
>>> cat("C[C@]12CC[C@@H]3c4ccc(O)cc4CC[C@H]3[C@@H]1CCC2OC(=O)CCC1CCCC1 (some centres not stated)")
"inactive"
>>> cat("NCCCCC(N)C(=O)O (configuration not stated)")
"inactive"
>>> cat("C=C(NCc1ccccc1)c1ccccc1O")
"inactive"
>>> cat("CC(C)(C)C(=O)OCC(=O)C1CCC2C3CCC4=CC(=O)CCC4(C)C3CCC12C (configuration not stated)")
"inactive"
>>> cat("CCCCCCCCCCCCCCCC(=O)OC[C@H](O)[C@H]1OC[C@@H](O)[C@@H]1O")
"inactive"
>>> cat("O=C(O)C[CH2][Ge](=[O])[O][Ge](=[O])[CH2]CC(=O)O")
"inactive"
>>> cat("CNC(=O)C(N)CSC(C)C1=C(C)c2cc3[n-]c(cc4nc(cc5[n-]c(cc1n2)c(C)c5CCC(=O)O)C(CCC(=O)O)=C4C)c(C)c3C(C)SCC(N)C(=O)NC.[Fe+2] (configuration not stated)")
"inactive"
>>> cat("CC[C@]1([C@H]2O[C@@H]([C@@H]3O[C@](O)(CO)[C@@H](C)C[C@H]3C)C[C@H]2C)CC[C@@H]([C@]2(C)CC[C@@]3(C[C@@H](O)[C@@H](C)[C@@H]([C@H](C)[C@H](OC)[C@H](C)C(=O)O)O3)O2)O1")
"active"
>>> cat("COC(=O)C1C2CC3c4[nH]c5cc(OC)ccc5c4CCN3CC2CC(OC)C1OC (configuration not stated)")
"inactive"
>>> cat("COc1ccc(C(=O)/C(Br)=C/C(=O)O)cc1")
"inactive"
>>> cat("CC(=O)CC(c1ccccc1)C1C(=O)Oc2ccccc2C1=O (configuration not stated)")
"inactive"
>>> cat("CCCCN1CC(O)C(O)C(O)C1CO (configuration not stated)")
"inactive"
>>> cat("CC[C@@H]1/C=C(\\C)C[C@H](C)C[C@H](OC)[C@H]2O[C@@](O)(C(=O)C(=O)N3CCCC[C@H]3C(=O)O[C@H](/C(C)=C/[C@@H]3CC[C@H](Cl)[C@H](OC)C3)[C@H](C)[C@@H](O)CC1=O)[C@H](C)C[C@@H]2OC")
"inactive"
>>> cat("O=c1ccn(C2OC(COP(=O)(O)OC3C(CO)OC(n4ccc(=O)[nH]c4=O)C3O)C(O)C2O)c(=O)[nH]1 (configuration not stated)")
"inactive"
>>> cat("CC[C@@]1(O)C[C@H](O[C@H]2C[C@@H](N(C)C)[C@@H](O[C@H]3C[C@@H](O)[C@@H](O[C@H]4CCC(=O)[C@@H](C)O4)[C@@H](C)O3)[C@@H](C)O2)c2c(cc3c(c2O)C(=O)c2c(O)cccc2C3=O)[C@H]1C(=O)OC")
"active"
>>> cat("C[C@@H]1CC2[C@@H]3C[C@H](F)C4=CC(=O)C(Cl)=C[C@]4(C)[C@@]3(F)[C@H](O)C[C@]2(C)[C@@]1(O)C(=O)CO (some centres not stated)")
"inactive"
>>> cat("CC12C=CC(=O)C=C1[C@@H](F)CC1C2C(O)CC2(C)C1CC[C@]2(O)C(=O)CO (some centres not stated)")
"inactive"
